Measured z-score accompanies every entry in the list below.
- Tgt: Metabotropic glutamate receptor 8 (Rattus norvegicus)
- Assay overview: mGluR8 Gi/Go-coupled signaling modulation – cell-based, rat, thallium flux, HTS, primary screen (AID 488969)
- Condition description: HEK293 rat mGluR8, GIRK (G protein-gated inwardly rectifying potassium channel) thallium flux, FluoZin2; at 10 µM; stronger effect = higher value; submaximal glutamate (EC20) added with thallium
Whole data set: some 110,000 compounds, median “z-score” near -0.1, cut for the highest 2% near 2. The list comes from a sample in which the highest values are over-represented; it also holds close analogues and randomly drawn compounds.
Quantity measured: z-score

# Molecule, Tgt, Quantity measured, Observed
measured = [
    ("O=C1CC(N2CCN(c3nc4ccccc4s3)CC2)C(=O)N1c1ccc(F)cc1 (stereo unspecified)", "Metabotropic glutamate receptor 8 (Rattus norvegicus)", "z-score", 7.65),
    ("CCOc1ccc(-n2c(C)nc3cc(C(=O)NCc4ccco4)ccc32)cc1", "Metabotropic glutamate receptor 8 (Rattus norvegicus)", "z-score", 0.364),
    ("O=C(NCC1CCCO1)C(c1cccs1)N(Cc1cccs1)C(=O)c1ccc(-c2ccccc2)[nH]1 (stereo unspecified)", "Metabotropic glutamate receptor 8 (Rattus norvegicus)", "z-score", -0.486),
    ("COc1ccc(-n2c(C)nc3cc(C(=O)NCc4ccc5c(c4)OCO5)ccc32)cc1", "Metabotropic glutamate receptor 8 (Rattus norvegicus)", "z-score", -0.347),
    ("CCOc1ccc(NC(=O)CSCC(=O)O)cc1", "Metabotropic glutamate receptor 8 (Rattus norvegicus)", "z-score", -0.178),
    ("O=C(N/N=C/c1ccco1)c1cc([N+](=O)[O-])cc([N+](=O)[O-])c1", "Metabotropic glutamate receptor 8 (Rattus norvegicus)", "z-score", 0.778),
    ("CC(C)CNC(C(=O)Nc1ccc([N+](=O)[O-])cc1Br)c1ccccc1 (stereo unspecified)", "Metabotropic glutamate receptor 8 (Rattus norvegicus)", "z-score", -0.337),
    ("Cc1ccc(C)c(OCC(=O)N/N=C/c2c(C)nn(-c3ccccc3)c2Cl)c1", "Metabotropic glutamate receptor 8 (Rattus norvegicus)", "z-score", 2.98),
    ("Cc1ccc(-c2nn(CC(=O)Nc3cccnc3)c(=O)c3ccccc23)cc1", "Metabotropic glutamate receptor 8 (Rattus norvegicus)", "z-score", -0.291),
    ("O=C(NC1CCCCC1)C(c1ccc2ncccc2c1)N(Cc1ccc2c(c1)OCO2)C(=O)c1cccs1 (stereo unspecified)", "Metabotropic glutamate receptor 8 (Rattus norvegicus)", "z-score", 0.00177),
    ("Cc1ccc(C)c(OCC(=O)N/N=C/c2c(C)nn(-c3ccccc3)c2Cl)c1C", "Metabotropic glutamate receptor 8 (Rattus norvegicus)", "z-score", -0.185),
    ("COc1ccc(OC)c(NS(=O)(=O)c2cc(OC)ccc2OC)c1", "Metabotropic glutamate receptor 8 (Rattus norvegicus)", "z-score", -0.0402),
    ("O=C(CCSc1ccccc1)Nc1nccs1", "Metabotropic glutamate receptor 8 (Rattus norvegicus)", "z-score", 0.115),
    ("COc1ccccc1CC(=O)Nc1ccc(-c2noc(COc3ccc(Cl)c(C)c3)n2)cc1", "Metabotropic glutamate receptor 8 (Rattus norvegicus)", "z-score", -0.166),
    ("O=C(NCC1CCCO1)C(c1cccs1)N(C(=O)c1ccc(-c2ccccc2)[nH]1)C1CCCC1 (stereo unspecified)", "Metabotropic glutamate receptor 8 (Rattus norvegicus)", "z-score", -0.0712),
    ("CC(C)c1c(O)nc(SCC(=O)N2CCOCC2)[nH]c1=O", "Metabotropic glutamate receptor 8 (Rattus norvegicus)", "z-score", -0.357),
]
